SYSTEM: 5-HT1B (Rattus norvegicus, UniProt P28564)
Construct: rat cerebral cortex; from tissue; host or cells: rat cerebral cortex
Sequence (P28564 whole entry): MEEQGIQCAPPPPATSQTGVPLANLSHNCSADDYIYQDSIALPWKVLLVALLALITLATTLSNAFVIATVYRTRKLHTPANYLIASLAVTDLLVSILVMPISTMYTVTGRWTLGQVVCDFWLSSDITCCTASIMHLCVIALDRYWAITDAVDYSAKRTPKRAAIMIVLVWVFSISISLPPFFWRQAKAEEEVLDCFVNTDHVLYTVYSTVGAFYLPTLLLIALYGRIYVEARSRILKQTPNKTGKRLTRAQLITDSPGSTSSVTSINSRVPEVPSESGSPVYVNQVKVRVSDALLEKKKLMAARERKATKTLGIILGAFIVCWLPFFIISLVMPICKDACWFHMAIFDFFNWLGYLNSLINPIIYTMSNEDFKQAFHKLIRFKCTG
ASSAY: Receptor binding screen, [^125I]CYP
TEST CONDITIONS: probe [125I]CYP (radioligand), 10 uM Concentration of Compound I-1-Z, read-out: Mean Value, percent inhibition of control specific binding: 5-HT1B
PARAMETER MEASURED: inhibition at 10 µM (%)
Numeric only. Scale: %

Query COc1ccc(C/C(=C/F)CN)cc1.Cl [Compound I-1-Z, hydrochloride] yields inhibition at 10 µM of 16

----------
SYSTEM: human MAO-B (Homo sapiens, UniProt P27338)
Sequence (P27338 whole entry): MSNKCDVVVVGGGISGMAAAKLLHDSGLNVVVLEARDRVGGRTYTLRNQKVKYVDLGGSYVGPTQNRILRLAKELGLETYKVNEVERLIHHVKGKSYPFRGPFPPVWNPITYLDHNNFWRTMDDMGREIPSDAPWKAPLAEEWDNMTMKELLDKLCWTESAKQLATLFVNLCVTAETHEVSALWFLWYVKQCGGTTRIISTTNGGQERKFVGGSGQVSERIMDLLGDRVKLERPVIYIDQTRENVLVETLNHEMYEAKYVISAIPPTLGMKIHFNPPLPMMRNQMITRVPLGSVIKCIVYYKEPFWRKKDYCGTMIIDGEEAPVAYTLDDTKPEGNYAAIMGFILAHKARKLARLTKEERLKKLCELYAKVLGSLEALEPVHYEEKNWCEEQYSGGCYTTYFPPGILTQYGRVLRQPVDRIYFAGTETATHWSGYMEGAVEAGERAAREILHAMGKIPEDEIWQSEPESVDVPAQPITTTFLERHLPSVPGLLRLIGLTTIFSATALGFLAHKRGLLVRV
ASSAY: MAO-B activity, colorimetric method, benzylamine substrate
TEST CONDITIONS: recombinant human MAO-B
PARAMETER MEASURED: pIC50
The scale used: pIC50 is minus the common logarithm of the concentration in molar units.

| COMPOUND | SYSTEM | pIC50 |
| --- | --- | --- |
| CCOc1ccc(C/C(=C\F)CN)cc1.Cl [Compound I-2-E, hydrochloride] | human MAO-B (Homo sapiens, UniProt P27338) | 5.77 |
| Cl.NC/C(F)=C\Cc1cccc(OC(F)(F)F)c1 [II-10-E, hydrochloride] | human MAO-B (Homo sapiens, UniProt P27338) | 3.02 |
| Cl.NC/C(=C\F)Cc1ccc(Cl)cc1 [Compound I-3-Z, hydrochloride] | human MAO-B (Homo sapiens, UniProt P27338) | 7.08 |
| CSc1ccc(C/C(=C/F)CN)cc1.Cl [Compound I-9-Z, hydrochloride] | human MAO-B (Homo sapiens, UniProt P27338) | 5.62 |

Query CCOc1ccc(C/C(=C/F)CN)cc1.Cl [Compound I-2-Z, hydrochloride] yields pIC50 of 4.92

Query CC(C)Oc1ccc(C/C(=C/F)CN)cc1.Cl [Compound I-8-Z, hydrochloride] yields pIC50 of 4.57

Query COc1ccc(C/C(=C/F)CN)cc1.Cl [Compound I-1-Z, hydrochloride] yields pIC50 of 5.80

Query NC/C(=C\F)CCc1cc(F)cc(C(F)(F)F)c1.O=C(O)C(F)(F)F [Compound I-109-Z, trifluoroacetate] yields pIC50 of 5.80

Query CCCCOc1ccc(CC/C(=C\Cl)CN)cc1.Cl [Compound I-47-E, hydrochloride] yields pIC50 of 6.38

Query NC/C(=C\Cl)CCc1cc(F)cc(C(F)(F)F)c1.O=C(O)C(F)(F)F [Compound I-40-Z, trifluoroacetate] yields pIC50 of 3.77

Query Cl.NC/C(F)=C\Cc1ccccc1 [II-9-E, hydrochloride] yields pIC50 of 2.92
